Source of measurements: patent US12338243B2

Examples of compounds with documented IC50 follow.
# system: rat P2X7 (Rattus norvegicus, UniProt Q64663)
# Sequence (Q64663 whole entry): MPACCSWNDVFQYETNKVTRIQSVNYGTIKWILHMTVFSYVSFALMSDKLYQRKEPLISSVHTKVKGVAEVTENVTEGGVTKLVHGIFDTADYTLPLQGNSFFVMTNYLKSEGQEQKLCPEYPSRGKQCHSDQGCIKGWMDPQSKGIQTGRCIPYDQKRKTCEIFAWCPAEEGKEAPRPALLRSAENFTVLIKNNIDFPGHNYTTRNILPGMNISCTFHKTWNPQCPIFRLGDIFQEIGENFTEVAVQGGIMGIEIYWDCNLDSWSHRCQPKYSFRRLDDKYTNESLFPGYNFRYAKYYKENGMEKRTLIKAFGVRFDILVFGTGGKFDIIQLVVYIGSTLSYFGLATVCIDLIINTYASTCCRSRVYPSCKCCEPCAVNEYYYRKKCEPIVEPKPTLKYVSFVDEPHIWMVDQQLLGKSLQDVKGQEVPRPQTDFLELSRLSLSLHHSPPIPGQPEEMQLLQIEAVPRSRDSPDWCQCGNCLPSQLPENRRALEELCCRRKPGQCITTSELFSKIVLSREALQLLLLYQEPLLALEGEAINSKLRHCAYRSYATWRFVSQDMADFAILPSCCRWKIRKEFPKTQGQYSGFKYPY
# experimental-details: Ca2+ flux (FLIPR) in 1321N1 cells expressing recombinant rat P2X7 channel
# condition-parameters: FLIPR (rat) IC50 (μM), 250 μM BzATP
measured-property: IC50 (µM)

- molecule: "C[C@H]1Cn2c(nnc2-c2ccc(C(F)(F)F)c(F)c2)CN1C(=O)c1cccc(C(F)(F)F)c1Cl"
  system: "rat P2X7 (Rattus norvegicus, UniProt Q64663)"
  measured-property: "IC50"
  readout-relation: "="
  reported-measurement: 2.97
- molecule: "CC(C)c1nnc2n1CCN(C(=O)c1cccc(C(F)(F)F)c1Cl)[C@@H]2c1ccccc1"
  system: "rat P2X7 (Rattus norvegicus, UniProt Q64663)"
  measured-property: "IC50"
  readout-relation: "="
  reported-measurement: 0.166
- molecule: "CC(C)c1nnc2n1CCN(C(=O)c1cccc(C(F)(F)F)c1Cl)[C@H]2c1ccccc1"
  system: "rat P2X7 (Rattus norvegicus, UniProt Q64663)"
  measured-property: "IC50"
  readout-relation: ">"
  reported-measurement: 10
- molecule: "O=C(c1cccc(Cl)c1Cl)N1CCn2c(C(F)F)nnc2[C@@H]1c1ccccc1"
  system: "rat P2X7 (Rattus norvegicus, UniProt Q64663)"
  measured-property: "IC50"
  readout-relation: ">"
  reported-measurement: 10
